- System: KM12
- ASSAY_REMARKS: NCI tumour cell line growth inhibition, 48 h
Activity calls are given as the source filed them. No stated cut-off is given here; in the data, active = GI50 up to about 1.1 µM and inactive = higher.
READOUT: GI50

Use these answered entries as a reference point.
- COMPOUND: "CCOC(=O)c1c(-c2ccccc2)c(C(OC(c2ccccc2)c2c(-c3ccccc3)c(C(=O)OCC)n3ccccc23)c2ccccc2)c2ccccn12 (centres undefined)"
  READOUT: "GI50"
  RESULT: "> 100 µM (inactive)"
- COMPOUND: "O=C(CC(=O)c1cccc2ccccc12)C(=O)Nc1ccc(Cl)cc1"
  READOUT: "GI50"
  RESULT: "> 100 µM (inactive)"
- COMPOUND: "COc1cccc(-c2[nH]c3cc4c(cc3c(=O)c2C(=O)O)OCO4)c1"
  READOUT: "GI50"
  RESULT: "36.7 µM (inactive)"

input: Record request: GI50 value, item CCOC(=O)C1S(=O)(=O)OCCOS1(=O)=O
output: > 100 µM (inactive)
